Origin of the recorded values: patent US12447153B2

target: EGFR wild type (EGFR WT) (Homo sapiens (Human), UniProt P00533); assay: Cellular Phosphorylation Assay, Assay 5 (EGF-stimulated EGFR phosphorylation, NIH 3T3 cells); assay type: cell-based; details: cellular EGFR WT phosphorylation, EGF-stimulated
Sequence (P00533 25-1210): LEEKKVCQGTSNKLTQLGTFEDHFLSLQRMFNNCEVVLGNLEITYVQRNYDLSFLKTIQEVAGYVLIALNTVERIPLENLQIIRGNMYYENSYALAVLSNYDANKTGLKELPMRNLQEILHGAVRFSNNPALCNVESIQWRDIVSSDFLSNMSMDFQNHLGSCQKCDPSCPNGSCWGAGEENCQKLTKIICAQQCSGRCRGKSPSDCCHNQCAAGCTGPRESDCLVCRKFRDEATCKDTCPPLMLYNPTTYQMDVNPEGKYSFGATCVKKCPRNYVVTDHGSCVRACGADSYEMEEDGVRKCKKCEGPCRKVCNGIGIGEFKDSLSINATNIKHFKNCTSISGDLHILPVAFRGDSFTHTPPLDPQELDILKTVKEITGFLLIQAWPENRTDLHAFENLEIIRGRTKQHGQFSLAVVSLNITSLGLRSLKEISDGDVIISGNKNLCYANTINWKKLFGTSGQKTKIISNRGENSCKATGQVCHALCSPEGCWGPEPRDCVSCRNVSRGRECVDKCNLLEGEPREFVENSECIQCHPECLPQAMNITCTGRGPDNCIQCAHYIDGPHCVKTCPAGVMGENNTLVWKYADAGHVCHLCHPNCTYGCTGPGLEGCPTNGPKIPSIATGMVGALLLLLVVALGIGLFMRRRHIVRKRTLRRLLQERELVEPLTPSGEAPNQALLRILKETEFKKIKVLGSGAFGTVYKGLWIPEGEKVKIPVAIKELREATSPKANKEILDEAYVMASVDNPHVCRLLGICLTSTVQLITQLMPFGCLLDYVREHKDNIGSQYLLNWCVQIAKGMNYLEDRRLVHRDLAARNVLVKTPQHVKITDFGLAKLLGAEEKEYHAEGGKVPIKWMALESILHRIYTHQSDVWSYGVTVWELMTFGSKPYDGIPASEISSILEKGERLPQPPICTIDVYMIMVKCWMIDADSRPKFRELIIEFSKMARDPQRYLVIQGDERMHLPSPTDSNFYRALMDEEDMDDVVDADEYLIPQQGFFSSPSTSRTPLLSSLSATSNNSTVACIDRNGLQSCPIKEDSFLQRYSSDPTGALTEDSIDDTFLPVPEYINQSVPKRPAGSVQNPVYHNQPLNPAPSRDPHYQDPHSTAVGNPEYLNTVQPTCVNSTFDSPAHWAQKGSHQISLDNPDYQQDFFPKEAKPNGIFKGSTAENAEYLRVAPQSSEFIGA
recorded metric: IC50 (nM)

* C=CC(=O)N1CC[C@@H]2C[C@H]1CN2c1ccc2ncnc(Nc3cc(C)c(Oc4ccn5ncnc5c4)cc3F)c2n1 [Example 332] | 341

P: C=CC(=O)N1CCN(c2ccc3ncnc(Nc4cc(C)c(Oc5ccc6c(c5)ncn6C)cc4F)c3n2)CC12CC2 [Example 340]
Q: C=CC(=O)N1CCN(c2ccc3ncnc(Nc4ccc(Oc5ccn6ncnc6c5)c(C)c4F)c3n2)C[C@H]1C(C)C [Example 267]
Returns: the argument ( P or Q ) having the larger IC50. Reply briefly: the label of your chosen item.
P
(P: 2020 nM, Q: 1070 nM)

a: C=CC(=O)N1C[C@@H]2C[C@H]1C[C@H]2c1ccc2ncnc(Nc3cc(C)c(Oc4ccc5c(c4)ncn5C)cc3F)c2n1 [Example 375]
b: C#CC1CN(c2ccc3ncnc(Nc4ccc(Oc5ccn6ncnc6c5)c(C)c4F)c3n2)CCN1C(=O)C=C (centres unmarked) [Example 322]
Returns: the argument ( a or b ) having the larger IC50. Reply briefly: the label of your chosen item.
a
(a: 2020 nM, b: 431 nM)

1: C=CC(=O)N1C[C@H](c2ccc3ncnc(Nc4ccc(Oc5ccn6ncnc6c5)c(C)c4F)c3n2)C[C@@H]1C1CC1 (racemic) [Example 302]
2: C=CC(=O)N1C[C@H]2C[C@@H]1[C@H](c1ccc3ncnc(Nc4ccc(Oc5ccn6ncnc6c5)c(C)c4)c3n1)C2 [Example 405]
Given the two records 1 and 2 , choose the one whose IC50 value is lower. Reply briefly: the label of your chosen item.
1
(1: 1450 nM, 2: 4550 nM)

###

molecular target: ErbB2 with Exon 20 YVMA insertion (HER2-YVMA) (Homo sapiens (Human), UniProt P04626, INS775YVMA); test: Cellular Phosphorylation Assay, Assay 4 (constitutive ErbB2 phosphorylation, NIH 3T3 cells); assay type: cell-based; conditions: cellular ErbB2 YVMA phosphorylation
Sequence (P04626 other isoform, or with tags, fused parts or gaps ins YVMA behind 775): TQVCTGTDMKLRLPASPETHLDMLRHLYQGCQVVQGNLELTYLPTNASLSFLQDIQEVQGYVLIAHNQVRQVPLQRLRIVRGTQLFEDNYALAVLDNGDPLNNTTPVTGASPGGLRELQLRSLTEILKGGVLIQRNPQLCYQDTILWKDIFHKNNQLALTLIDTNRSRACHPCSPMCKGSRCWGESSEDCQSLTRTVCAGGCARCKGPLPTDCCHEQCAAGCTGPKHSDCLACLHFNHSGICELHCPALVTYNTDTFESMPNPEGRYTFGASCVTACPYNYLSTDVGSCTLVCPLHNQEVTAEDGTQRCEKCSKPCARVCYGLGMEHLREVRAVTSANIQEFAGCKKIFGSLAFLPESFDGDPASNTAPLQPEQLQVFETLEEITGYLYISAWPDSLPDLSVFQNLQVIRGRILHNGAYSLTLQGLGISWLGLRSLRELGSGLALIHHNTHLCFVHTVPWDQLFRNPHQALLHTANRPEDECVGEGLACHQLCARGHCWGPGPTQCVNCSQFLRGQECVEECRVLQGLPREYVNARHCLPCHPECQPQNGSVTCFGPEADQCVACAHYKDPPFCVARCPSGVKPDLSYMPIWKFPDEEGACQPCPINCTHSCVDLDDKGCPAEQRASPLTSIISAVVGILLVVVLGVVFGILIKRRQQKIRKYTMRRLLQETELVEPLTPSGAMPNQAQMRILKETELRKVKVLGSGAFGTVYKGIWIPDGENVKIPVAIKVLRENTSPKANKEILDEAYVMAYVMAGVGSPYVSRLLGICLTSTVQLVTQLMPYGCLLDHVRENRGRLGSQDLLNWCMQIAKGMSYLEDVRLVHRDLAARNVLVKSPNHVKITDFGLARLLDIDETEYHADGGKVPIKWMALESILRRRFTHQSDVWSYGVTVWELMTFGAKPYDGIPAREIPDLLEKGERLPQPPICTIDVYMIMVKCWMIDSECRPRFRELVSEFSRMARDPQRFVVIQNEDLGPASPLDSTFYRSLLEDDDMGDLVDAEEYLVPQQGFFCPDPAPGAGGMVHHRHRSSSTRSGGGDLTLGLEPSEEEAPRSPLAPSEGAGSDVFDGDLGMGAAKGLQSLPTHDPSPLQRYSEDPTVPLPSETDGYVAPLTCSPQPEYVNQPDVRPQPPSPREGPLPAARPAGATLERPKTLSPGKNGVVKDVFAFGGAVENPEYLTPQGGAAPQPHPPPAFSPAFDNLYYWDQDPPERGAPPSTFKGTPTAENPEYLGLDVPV
pIC50: −log10 of the molar value.
recorded metric: pIC50

Below: 4 molecules and their reported pIC50.
* C=CC(=O)N1[C@H](C)CN(c2ccc3ncnc(Nc4cc(Cl)c(Oc5ccn6ncnc6c5)cc4F)c3n2)C[C@@H]1C | 7.47
* C=CC(=O)N1[C@@H](C)CC(c2ccc3ncnc(Nc4ccc(Oc5ccc6c(c5)ncn6C)c(C)c4F)c3n2)C[C@@H]1C (mixture of isomers) | 7.28
* C=CC(=O)N1CC2(CCN(c3ccc4ncnc(Nc5ccc(Oc6ccn7ncnc7c6)c(C)c5F)c4n3)C2)C1 | 7.44
* C=CC(=O)N1C2CC1CN(c1ccc3ncnc(Nc4cc(C)c(Oc5cnc6c(c5)ncn6C)cc4F)c3n1)C2 | 7.55

I: C=CC(=O)N1CCC(c2ccc3ncnc(Nc4ccc(Oc5cnc6c(c5)ncn6C)c(C)c4)c3n2)CC1
II: C=CC(=O)N1C[C@H]2CC[C@@H]1[C@@H](c1ccc3ncnc(Nc4ccc(Oc5cnc6c(c5)ncn6C)c(C)c4F)c3n1)C2
Returns: the argument ( I or II ) having the larger pIC50. Reply briefly: the label of your chosen item.
I

###

molecular target: UniProtKB P04626; assay: ErbB Enzyme Assay (HTRF KinEASE-TK), Assay 2; type: biochemical; settings: ErbB2 WT enzyme
pIC50: −log10 of the molar value.
recorded metric: pIC50

Below: 5 molecules and their reported pIC50.
* C=CC(=O)N1CCN(c2ccc3ncnc(Nc4ccc(Oc5cnc6c(c5)ncn6C)c(C)c4F)c3n2)C[C@H]1C1CC1 [Example 165] | 6.75
* CC#CC(=O)N1CCN(c2ccc3ncnc(Nc4ccc(Oc5ccn6ncnc6c5)c(Cl)c4F)c3n2)CC12CC2 [Example 181] | 7.93
* C=CC(=O)N1C2CC1CN(c1ccc3ncnc(Nc4ccc(Oc5ccn6ncnc6c5)c(C)c4F)c3n1)C2 [Example 47] | 7.22
* C=CC(=O)N1CC(c2ccc3ncnc(Nc4ccc(Oc5ccc6c(c5)ncn6C)c(C)c4F)c3n2)CCC12CC2 (stereo not shown) [Example 197] | 7.68
* C=CC(=O)N1C[C@H]2C[C@H](c3ccc4ncnc(Nc5cc(C)c(Oc6ccc7c(c6)ncn7C)cc5F)c4n3)C[C@H]2C1 [Example 136] | 7.40

a: CC#CC(=O)N1CCN(c2ccc3ncnc(Nc4ccc(Oc5ccn6ncnc6c5)c(C)c4F)c3n2)C[C@@H]1COC [Example 180]
b: CC#CC(=O)N1CCN(c2ccc3ncnc(Nc4ccc(Oc5ccn6ncnc6c5)c(C)c4F)c3n2)C[C@@H]1C(F)F (racemic) [Example 168]
Returns: the argument ( a or b ) having the larger pIC50. Reply briefly: the label of your chosen item.
b
(b: 7.13, a: 6.50)

###

target: MDR1 (P-gp) (Homo sapiens (Human)); test: in vitro; conditions: pig, LLC-PK1
Sequence (P08183 whole entry): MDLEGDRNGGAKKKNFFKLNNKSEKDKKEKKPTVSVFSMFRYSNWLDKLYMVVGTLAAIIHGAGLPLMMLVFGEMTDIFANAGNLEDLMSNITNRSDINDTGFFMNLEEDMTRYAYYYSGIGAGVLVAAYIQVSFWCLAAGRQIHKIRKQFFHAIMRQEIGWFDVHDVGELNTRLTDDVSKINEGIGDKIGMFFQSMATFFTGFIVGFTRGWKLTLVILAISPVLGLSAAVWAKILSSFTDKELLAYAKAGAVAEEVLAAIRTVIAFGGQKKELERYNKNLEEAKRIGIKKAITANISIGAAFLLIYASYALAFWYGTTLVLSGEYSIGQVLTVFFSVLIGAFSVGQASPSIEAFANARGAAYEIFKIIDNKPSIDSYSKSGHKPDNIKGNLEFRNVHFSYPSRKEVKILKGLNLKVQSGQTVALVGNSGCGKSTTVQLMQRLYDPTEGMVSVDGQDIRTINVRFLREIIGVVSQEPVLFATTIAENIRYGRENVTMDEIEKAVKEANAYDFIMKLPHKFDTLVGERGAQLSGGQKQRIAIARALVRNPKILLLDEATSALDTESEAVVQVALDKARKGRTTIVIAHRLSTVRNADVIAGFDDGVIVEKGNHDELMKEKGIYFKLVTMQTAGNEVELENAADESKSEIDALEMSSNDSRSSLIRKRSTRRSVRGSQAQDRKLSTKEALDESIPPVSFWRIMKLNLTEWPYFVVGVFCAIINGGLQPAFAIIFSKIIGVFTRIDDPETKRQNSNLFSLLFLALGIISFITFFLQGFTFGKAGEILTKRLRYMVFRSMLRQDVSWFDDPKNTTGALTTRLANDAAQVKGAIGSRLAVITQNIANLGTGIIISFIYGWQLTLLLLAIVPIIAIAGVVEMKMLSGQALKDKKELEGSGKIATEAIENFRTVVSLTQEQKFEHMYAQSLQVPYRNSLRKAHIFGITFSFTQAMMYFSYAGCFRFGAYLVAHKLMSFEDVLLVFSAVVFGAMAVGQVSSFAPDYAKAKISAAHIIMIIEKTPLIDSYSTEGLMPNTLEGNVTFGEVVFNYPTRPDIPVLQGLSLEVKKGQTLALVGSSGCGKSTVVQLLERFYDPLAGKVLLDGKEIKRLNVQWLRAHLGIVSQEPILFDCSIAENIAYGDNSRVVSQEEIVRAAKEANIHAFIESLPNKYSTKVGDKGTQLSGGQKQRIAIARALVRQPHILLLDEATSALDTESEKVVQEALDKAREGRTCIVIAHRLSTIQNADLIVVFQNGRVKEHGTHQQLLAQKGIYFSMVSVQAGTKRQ
recorded metric: efflux ratio at 2 h, 1 µM
No unit in the answer, only the number.

Below: 2 compounds and their reported efflux ratio at 2 h, 1 µM.
- C=CC(=O)N1[C@@H]2CC[C@H]1C(c1ccc3ncnc(Nc4ccc(Oc5ccn6ncnc6c5)c(C)c4)c3n1)C2 (single isomer, unassigned): 0.8
- C=CC(=O)N1[C@H]2CC[C@@H]1[C@@H](c1ccc3ncnc(Nc4ccc(Oc5ccn6ncnc6c5)c(C)c4F)c3n1)C2 (single isomer, unassigned): 0.7

Here is the next item to consider.
Please look at this compound and report its efflux ratio at 2 h, 1 µM: `C=CC(=O)N1C[C@@H]2C[C@H](c3ccc4ncnc(Nc5cc(C)c(Oc6ccc7c(c6)ncn7C)cc5F)c4n3)C[C@H]1C2`
3.2

###

Biological target: EGFR (Homo sapiens (Human))
Sequence (P00533 25-1210): as the sequence (P00533 25-1210) above
Experiment: ErbB Enzyme Assay (HTRF KinEASE-TK), Assay 3
Type: biochemical
Conditions: EGFR enzyme
Description: The kinases were incubated with 250 nM TK-substrate biotin (CisBio, part of cat #62TKOPEC) at 1 mM ATP along with test compounds in a buffer consisting of 25 mM HEPES, pH 7.4, 10 mM MgCl2, 0.01% Triton X-100, and 2% DMSO in a volume of 8 μL. […] After 30-minute incubation at 22° C., the reaction was quenched by adding 8 μL of quench solution containing 62.5 nM Sa-XL665 and 0.25×TK-Ab-Cryptate in HTRF detection buffer (all from CisBio, part of cat #62TKOPEC). […]
recorded metric: IC50 (µM)

Below: 4 compounds and their reported IC50.
- C=CC(=O)N1CCN(c2ccc3ncnc(Nc4ccc(Oc5ccn6ncnc6c5)c(C)c4)c3n2)CC1(C)C [Example 77]: 2.55
- C=CC(=O)N1CCCCC(c2ccc3ncnc(Nc4ccc(Oc5ccn6ncnc6c5)c(C)c4)c3n2)C1 (stereo not shown) [Example 204]: 0.9
- C=CC(=O)N1CCC(c2ccc3ncnc(Nc4ccc(Oc5ccc6c(c5)ncn6C)c(C)c4)c3n2)CC1 [Example 34]: 6.87
- C=CC(=O)N1C[C@H]2CC[C@@H]1C[C@@H]2c1ccc2ncnc(Nc3ccc(Oc4ccn5ncnc5c4)c(C)c3F)c2n1 (single isomer, unassigned) [Example 234]: 0.96

A: C=CC(=O)N1CC2(C1)CN(c1ccc3ncnc(Nc4ccc(Oc5ccn6ncnc6c5)c(Cl)c4F)c3n1)C2 [Example 101]
B: CC#CC(=O)N1CCN(c2ccc3ncnc(Nc4ccc(Oc5ccn6ncnc6c5)c(Cl)c4F)c3n2)C[C@H]1C [Example 178]
Returns: the argument ( A or B ) having the larger IC50. Reply briefly: the label of your chosen item.
A

###

Biological target: EGFR wild type (EGFR WT) (Homo sapiens (Human), UniProt P00533)
Test: Cellular Phosphorylation Assay, Assay 5 (EGF-stimulated EGFR phosphorylation, NIH 3T3 cells)
Format: cell-based
Conditions: EGF-stimulated EGFR WT phosphorylation
Procedure: NIH 3T3 cells were engineered to express ErbB2 with Exon 20 YVMA insertion (HER2-YVMA (SEQ ID NO: 2); Assay 4) or EGFR wild type (EGFR WT; Assay 5) with constructs obtained from GenScript and grown in DMEM supplemented with 10% fetal bovine serum and 15 μg/ml blasticidin. […] Serially diluted compounds were added to the plates for 1 hour at 37° C./5% CO2. EGFR WT cells were stimulated with 100 ng/ml rEGF for an additional 10 minutes at 37° C./5% CO2. […]
recorded metric: IC50 (nM)

- C=CC(=O)N1CCC(Oc2ccc3ncnc(Nc4ccc(Oc5ccc6cn(C)nc6c5)c(C)c4F)c3n2)CC1: 2920
- C=CC(=O)N1CCCC(c2ccc3ncnc(Nc4ccc(Oc5ccn6ncnc6c5)c(C)c4F)c3n2)C1 (centres unmarked): 809
- C=CC(=O)N1CCN(c2ccc3ncnc(Nc4ccc(Oc5ccn6ncnc6c5)c(Cl)c4F)c3n2)CC1: 87.6

1: C=CC(=O)N1CC[C@@H]2C[C@H](c3ccc4ncnc(Nc5cc(C)c(Oc6ccn7ncnc7c6)cc5F)c4n3)C[C@@H]21 (single isomer, unassigned)
2: C=CC(=O)N1CC[C@H]2CN(c3ccc4ncnc(Nc5ccc(Oc6ccn7ncnc7c6)c(Cl)c5F)c4n3)C[C@H]21
Given the two records 1 and 2 , choose the one whose IC50 value is lower. Reply briefly: the label of your chosen item.
1

1: C=CC(=O)N1CCC(Oc2ccc3ncnc(Nc4ccc(Oc5cnn6ccnc6c5)c(C)c4)c3n2)CC1
2: C=CC(=O)N1CCN(c2ccc3ncnc(Nc4ccc(Oc5ccn6ncnc6c5)c(C)c4F)c3n2)C[C@H]1C
Returns: the argument ( 1 or 2 ) having the larger IC50. Reply briefly: the label of your chosen item.
1
(1: 799 nM, 2: 449 nM)
